These measurements were taken from the NIST ThermoML archive (doi:10.1021/je7001013).

Conditions: 308.15 K
quantity: surface tension liquid-gas (mN/m)

| molecule | assay result |
| --- | --- |
| CCCS(=O)CCC [dipropyl sulfoxide] | 31.5 |
| C[S+](C)[O-] [dimethyl sulfoxide] | 40.3 |
| CC[S+]([O-])CC [diethyl sulfoxide] | 33.7 |
| CC(C)S(=O)C(C)C | 30.7 |

----------
Details: 298.15 K
quantity: surface tension liquid-gas (mN/m)

| compound | units symbol | surface tension liquid-gas |
| --- | --- | --- |
| C[S+](C)[O-] [dimethyl sulfoxide] | mN/m | 41.7 |
| CCCS(=O)CCC [dipropyl sulfoxide] | mN/m | 32.6 |
| CC[S+]([O-])CC [diethyl sulfoxide] | mN/m | 34.6 |
| CC(C)S(=O)C(C)C | mN/m | 31.8 |
